Entry source: ChEMBL document CHEMBL1201862

System: OVCAR-8
Experiment: NCI tumour cell line growth inhibition, 48 h
Activity calls are given as the source filed them. Cut-off read from the data, not from the text of the source: active = GI50 up to about 1.1 µM and inactive = higher.
Outcomes: active, inactive

- CCOC(=O)C(NC(=O)CC)(N1CCN(c2cc3c(cc2F)c(=O)c(C(=O)O)cn3C2CC2)CC1)C(F)(F)F (centres undefined): inactive
- COc1cc(C2S/C(=C/c3ccccc3)C(=O)N2c2ccccc2Cl)cc(OC)c1OC (centres undefined): inactive
- C/C=C\C(CC(=O)NCC(=O)c1c[nH]c2ccccc12)CC(=O)OC (centres undefined): inactive
- O=C1NC2OC(CO)C(O)C(O1)C2O (centres undefined): inactive
- COc1ccc(C(=O)/C=C/c2ccc(O)c(O)c2)c(OC)c1: inactive
- O=c1c(C(c2ccc(OCc3ccccc3)cc2)c2c(O)oc3ccccc3c2=O)c(O)oc2ccccc12: inactive
- CN(C)CCNc1nc2ccccc2c2c1C(=O)c1ccccc1-2: active
- Cc1nc2ccc(S(=O)(=O)Nc3ccccc3)cc2c(=O)n1NC(=O)CNc1ccccc1: inactive
- N=C(N)SCCSC(=N)N: inactive
- CCN(CC)c1cccc2c1C1(O)CCC3(CC21)OCCCCO3 (centres undefined): inactive
- CC(C)(C)N/N=C(\C(=O)NC1=C(Cl)C(=O)c2ccccc2C1=O)C1C=CCS1(=O)=O (centres undefined): inactive
- COCC(C#N)NC1CC(OC2CC(O)(C(=O)CO)Cc3c(O)c4c(c(O)c32)C(=O)c2c(OC)cccc2C4=O)OC(C)C1O (centres undefined): active
- COc1ccc(C(=O)/C=C/c2ccc(OCCCCCCCCCCOc3ccc(/C=C/C(=O)c4ccc(OC)cc4)cc3)cc2)cc1: inactive
- Clc1ccc(/C=N/c2ccc3c(c2)Cc2ccccc2-3)c(Cl)c1: inactive

* * *

System: SK-MEL-5
Experiment: NCI tumour cell line growth inhibition, 48 h
Active and inactive are the calls of the source. Rule as the data show it: active = GI50 up to about 1.1 µM and inactive = higher.
quantity: GI50

* CCCCn1cnc2c(SC)ncnc21 | > 100 µM (inactive)
* CC(C)(C)NC(=O)/C(=C\Sc1ccccc1)c1ccccc1 | 52.5 µM (inactive)
* CSC1=NC(=O)CCN1C1OCC(OC(C)=O)C(OC(C)=O)C1OC(C)=O (stereo unspecified) | 10.9 µM (inactive)
* COc1cc(CCc2ccncc2)cc(OC)c1OC | > 100 µM (inactive)
* CCOC(=O)C(NC(=O)CC)(N1CCN(c2cc3c(cc2F)c(=O)c(C(=O)O)cn3C2CC2)CC1)C(F)(F)F (stereo unspecified) | > 100 µM (inactive)
* Cc1cc2c([N+](=O)[O-])cc3c(c2o1)C(=O)C=CC3=O | 14.2 µM (inactive)
* Clc1nc(-[n+]2ccc(-c3ccncc3)cc2)nc(Nc2ccccc2)c1Cl | > 100 µM (inactive)
* O=C1CCCN1CCC/N=c1/cc2n(-c3ccc(Cl)cc3)c3ccccc3nc-2cc1Nc1ccc(Cl)cc1 | 13 µM (inactive)
* O=C1/C(=C2\Sc3c(ccc(Cl)c3Cl)C2=O)Sc2c1ccc(Cl)c2Cl | > 100 µM (inactive)
* O=C1NC(=S)N(c2ccccc2)C1=O | > 100 µM (inactive)
* CCOC(=O)C(C(=O)Cc1ccccc1)c1ccccc1 (stereo unspecified) | > 100 µM (inactive)

* * *

Test system: SNB-75
Assay: NCI tumour cell line growth inhibition, 48 h
The source made the active and inactive calls. No stated cut-off is given here; in the data, active = GI50 up to about 1.1 µM and inactive = higher. Where a SMILES comes first, the peptide text is derived from it. The star is where a group is joined. Cbz = O=C(OCc1ccccc1)*
quantity: GI50

* CCOC(=O)C1(C#N)C(=O)c2cc[n+](CC[n+]3ccc4c(c3)C(=O)C(C#N)(C(=O)OCC)C4=O)cc2C1=O (stereo not drawn) | > 100 µM (inactive)
* C/C(=N\NC(=S)NCCNC(=S)N/N=C(\C)c1ccccn1)c1ccccn1 | 1.73 µM (inactive)
* C[C@]12OC[C@H](c3ccccc3)N1C(=O)C1[C@H]2CC12SCCS2 (stereo partly drawn) | > 100 µM (inactive)
* N#Cc1c(N2CCOCC2)ncn(-c2ccc(Cl)cc2)c1=O | > 100 µM (inactive)
* N#CC(c1ccccc1)N1CCCN(C(C#N)c2ccccc2)C1c1ccccc1O (stereo not drawn) | > 100 µM (inactive)
* COC(=O)C(CC(C)C)NC(=O)C(CCCNC(=N)N)NC(=O)OCc1ccccc1 (stereo not drawn) (Cbz-Arg-Leu-OMe; configuration not given here) | 72.6 µM (inactive)
* C=C1CC(Cn2cc(Br)c(=O)[nH]c2=O)(c2ccc(Br)cc2)OC1=O (stereo not drawn) | 13.2 µM (inactive)
* CC(=O)O[C@H]1C(=O)[C@@]2(C)[C@H]([C@H](OC(=O)c3ccccc3)[C@@]3(O)C[C@H](O)C(C)=C1C3(C)C)[C@]1(OC(C)=O)CO[C@@H]1C[C@@H]2O | 11.2 µM (inactive)
